Reference for the values: the supplement of paper PMC10567573

B1: ELF3 (parent)
chain: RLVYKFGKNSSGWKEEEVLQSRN

Variants of: B1
methodSummary: protein stability index of a GFP-peptide fusion (GPS, HEK-293T) (PSI 1-6); higher = more stable;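 also: lentivirally expressed fusions sorted by FACS into six bins by GFP to DsRed ratio, PSI derived from sequencing read proportions per bin multiplied by bin number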
particulars: c terminus: native
The following variants are shown together with reported protein stability index values.

- sequenceInput: "RLVYKFGKNSSGWKEEPVLQSRN [E17P]"
  protein stability index: 2.22
- sequenceInput: "RLVYKFGKNSSGWKCEEVLQSRN [E15C]"
  protein stability index: 2.49
- sequenceInput: "RLVYKFGKNSSGWKEEEVLQSSN [R22S]"
  protein stability index: 2.92
- sequenceInput: "RLVYYFGKNSSGWKEEEVLQSRN [K5Y]"
  protein stability index: 2.16
- sequenceInput: "RLVYKFGKNSSGWREEEVLQSRN [K14R]"
  protein stability index: 2.43
- sequenceInput: "RLVYKFGKNSSCWKEEEVLQSRN [G12C]"
  protein stability index: 2.05
- sequenceInput: "RLVYKFGKNSSGWKEETVLQSRN [E17T]"
  protein stability index: 1.51
- sequenceInput: "RLVYKFGYNSSGWKEEEVLQSRN [K8Y]"
  protein stability index: 1.42
- sequenceInput: "RLVEKFGKNSSGWKEEEVLQSRN [Y4E]"
  protein stability index: 3.47
- sequenceInput: "RLVYKFGSNSSGWKEEEVLQSRN [K8S]"
  protein stability index: 2.44
- sequenceInput: "RLVYKFGKNSSGWKEEEVLLSRN [Q20L]"
  protein stability index: 2.19
